procedure_text: Pharmacokinetic parameters in rats
Format: in vivo, SD rats
condition_summary: male, SD, rat, plasma, po, 10 mg/kg, oral administration (gavage) 10 mg/kg, individual rats #1-#3
Method: In the example, SD rats (180-220 g, male) (purchased from Experimental Animal Center of Anhui Medical University, China) were used. The animals were kept in cages ventilated independently with 6 rats per cage. The feeding was performed at a temperature of 20˜26° C. and a humidity of 35-75%. The light condition was 12 hours of lighting/12 hours of darkness. The corncob bedding was refreshed once a week. The rats were fed with foods and drinking water on an ad libitum basis. […]

- compound: "Cc1ccc(NC(=O)c2cccc(C(F)(F)F)c2)cc1-n1cc(-c2cncc(N3CCOCC3)c2)cn1 [Example 16]"
  AUC(0-inf): "13500 ng·h/mL"

----------
procedure_text: Pharmacokinetic parameters in rats
Assay type: in vivo, SD rats
condition_summary: male, Sprague-Dawley, rat, plasma, iv, 1 mg/kg, intravenous injection 1 mg/kg, individual rats #1-#3, read-out: T½ (converted)

- compound: "Cc1ccc(NC(=O)c2cccc(C(F)(F)F)c2)cc1-n1cc(-c2cncc(N3CCOCC3)c2)cn1"
  half-life [h]: 3.59
- compound: "Cc1ccc(NC(=O)c2cccc(C(F)(F)F)c2)cc1-n1cc(-c2cccnc2)cn1 [compound 1, reference compound]"
  half-life [h]: 0.646

----------
procedure_text: Pharmacokinetic parameters in rats
Type: in vivo, SD rats
condition_summary: male, SD, rat, plasma, po, 10 mg/kg, oral administration (gavage) 10 mg/kg, individual rats #1-#3, read-out: T½ (converted)
# half-life annotations

- compound: "Cc1ccc(NC(=O)c2cccc(C(F)(F)F)c2)cc1-n1cc(-c2cncc(N3CCOCC3)c2)cn1"
  half-life [h]: 3.19
- compound: "Cc1ccc(NC(=O)c2cccc(C(F)(F)F)c2)cc1-n1cc(-c2cccnc2)cn1 [compound 1, reference compound]"
  half-life [h]: 1

----------
procedure_text: Pharmacokinetic parameters in rats
Assay type: in vivo, SD rats
condition_summary: male, Sprague-Dawley, rat, plasma, iv, 1 mg/kg, intravenous injection 1 mg/kg, individual rats #1-#3
readout_type: AUC(0-inf) (ng·h/mL)

- molecule: "Cc1ccc(NC(=O)c2cccc(C(F)(F)F)c2)cc1-n1cc(-c2cccnc2)cn1 [compound 1, reference compound]"
  readout_type: "AUC(0-inf)"
  reported_value: 84
- molecule: "Cc1ccc(NC(=O)c2cccc(C(F)(F)F)c2)cc1-n1cc(-c2cncc(N3CCOCC3)c2)cn1"
  readout_type: "AUC(0-inf)"
  reported_value: 861

----------
procedure_text: Pharmacokinetic parameters in rats
Format: in vivo, SD rats
condition_summary: male, SD, rat, plasma, po, 10 mg/kg, oral administration (gavage) 10 mg/kg, individual rats #1-#3, read-out: AUC0-t

- smiles_entry: "Cc1ccc(NC(=O)c2cccc(C(F)(F)F)c2)cc1-n1cc(-c2cncc(N3CCOCC3)c2)cn1"
  AUC0-t (ng·h/mL): 13400

----------
# half-life annotations
procedure_text: Pharmacokinetic parameters in rats
Type: in vivo, SD rats
condition_summary: male, Sprague-Dawley, rat, plasma, iv, 1 mg/kg, intravenous injection 1 mg/kg, average n=3, read-out: T½ (converted)

- compound: "Cc1ccc(NC(=O)c2cccc(C(F)(F)F)c2)cc1-n1cc(-c2cccnc2)cn1 [compound 1, reference compound]"
  half-life: "0.715 h"
- compound: "Cc1ccc(NC(=O)c2cccc(C(F)(F)F)c2)cc1-n1cc(-c2cncc(N3CCOCC3)c2)cn1"
  half-life: "3.01 h"

Where do these numbers come from? They come from patent US12115152B2.
